- protocol: qHTS for inhibitors of binding or entry into cells for Marburg Virus
- run.parameters: Marburg virus pseudotyped entry inhibition, cell reporter; series mostly up to 37.8 µM
Screen size: about 300,000 compounds; about 5,400 (1.8%) were called active. Roughly 28% stayed inconclusive and do not appear here. Calls come from the whole dose curve; tested in HEK293 cells. The list comes from a sample in which actives are over-represented; it also holds close analogues and randomly drawn compounds.
Bench note: report the call from active, inactive

Solved entries (count: 5):
Cn1c(=O)c2c(nc(NCCNC(=O)c3ccco3)n2Cc2ccccc2F)n(C)c1=O
inactive
Cn1c(=O)c2c(nc(NCCc3ccccc3)n2Cc2ccccc2)n(C)c1=O
active
CCN(CC)CCCC(C)Nc1ccnc2cc(Cl)ccc12 (stereo unspecified)
active
CN(C)c1ccc(NC(=S)N(CCc2ccccc2)C2CC(=O)N(c3c(Cl)cccc3Cl)C2=O)cc1 (stereo unspecified)
active
COc1ccccc1C(=O)OCC(=O)Nc1cccc(S(=O)(=O)NC2=NCCCCC2)c1
inactive

IN: Recorded test call requested for CCN(CCCNC(=O)c1cc2c(=O)n(CC)c3ccccc3c2s1)Cc1ccccc1
OUT: active

IN: Recorded test call requested for Cc1ccc(Nc2nnc(SC(C)C(=O)NC3CC3)s2)cc1 (stereo unspecified)
OUT: inactive

The reported numbers originate from PubChem BioAssay AID540276.
